tested on: SU86.86 (expressing KRas G12D mutant); test: Proliferation Assay (Cell Viability Assay); assay type: cell-based; conditions: Homo sapiens, SU.86.86, SU86.86, pancreatic

| structure_string | experimental_system | IC50 |
| --- | --- | --- |
| COc1cc(Nc2nc(-c3nccn3C)nn3cc(-c4ccn(C(C)C)n4)c(C)c23)ncn1 | SU86.86 (expressing KRas G12D mutant) | 150 to 500 nM |

---

test system: Erk1/2 phosphorylation; assay: Erk1/2 Phosphorylation Assay (western blot), Panc-1; type: cell-based, human; details: at 10 μM, * = activation
endpoint: % inh of Erk1/2 phosphorylation in Panc-1

| compound | test_value |
| --- | --- |
| Cn1ccnc1-c1nc(O)c2c(-c3ccccc3)c(-c3cccnc3)cn2n1 | A* (1-25% activation) |
| Cc1c(-c2ccn(C)n2)cn2nc(-c3nccn3C)nc(Nc3cnccn3)c12 | C* (46-84% activation) |
| Cc1c(-c2ccn(C)n2)cn2nc(-c3nccn3C)nc(Nc3cc(N4CCOCC4)ccn3)c12 | A* (1-25% activation) |
| Cc1c(-c2ccn(C)n2)cn2nc(-c3nccn3C)nc(Nc3cc(OCCO)ncn3)c12 | A* (1-25% activation) |
| Cc1c(-c2ccn(C3CC3)n2)cn2nc(-c3nccn3C)nc(Nc3cc(OCCO)ccn3)c12 | D* (85-100% activation) |
| CO[C@H]1C[C@H](S(=O)(=O)Nc2nc(-c3nccn3C)nn3cc(-c4ccccc4)c(-c4ccccc4)c23)C1 | A* (1-25% activation) |
| Cc1c(-c2ccn(C(C)C)n2)cn2nc(-c3nccn3C)nc(Nc3cc(C4CC4)no3)c12 | D* (85-100% activation) |
| COc1cc(-c2cn3nc(-c4nccn4C)nc(N[C@@H]4CC[C@@H](OC)C4)c3c2C)ccn1 (racemic) | A* (1-25% activation) |
| COc1ccnc(Nc2nc(-c3nccn3CCN)nn3cc(-c4ccn(C)n4)c(C)c23)c1 | A (1-25% inhibition) |
| COc1cccc(Nc2nc(-c3nccn3C)nn3ccc(-c4ccccc4)c23)n1 | 0 (0% inhibition) |
| COc1cc(Nc2nc(-c3nccn3C)nn3cc(-c4ccn(C(F)F)n4)c(C)c23)ncn1 | D* (85-100% activation) |
| COc1ccnc(Nc2nc(-c3nccn3C)nn3cc(-c4ccn(C)n4)c(C(=O)NCCN(C)C)c23)c1 | D* (85-100% activation) |
| CO[C@H]1C[C@H](Nc2nc(-c3nccn3C)nn3cc(-c4ccc(OCCN)cc4)c(-c4ccccc4)c23)C1.Cl | C* (46-84% activation) |
| Cc1ccnc(Nc2nc(-c3nccn3C)nn3cc(-c4ccn(C5CC5)n4)c(C)c23)c1 | A (1-25% inhibition) |
| COc1cccc(Nc2nc(-c3ccccn3)nn3cc(-c4ccn(C(C)C)n4)c(C)c23)n1 | 0 (0% inhibition) |
